# IC50 per entry
# TARGET OF ASSAY: MMP-12 (Homo sapiens, UniProt P39900)
# Construct: In regard to MMP-12, catalytic domain(^100Phe˜^263Gly) was amplified with RT-PCR; His-tag; enterokinase digestion-site; made in house
# Sequence (P39900 100-263): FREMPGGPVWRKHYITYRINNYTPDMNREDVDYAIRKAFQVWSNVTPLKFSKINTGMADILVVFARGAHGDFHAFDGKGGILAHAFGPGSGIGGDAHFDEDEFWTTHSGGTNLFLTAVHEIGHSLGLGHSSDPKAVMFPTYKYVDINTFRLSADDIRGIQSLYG
# EXPERIMENTAL PROTOCOL: Assay for inhibitory activities on MMPs (fluorogenic MOCAc peptide substrate): MMP-12
# Assay type: biochemical
# DETAILS: catalytic domain 100Phe-263Gly
# number only, unit µM dropped from output

Examples with their reported IC50 follow.
CCC(C)[C@H](NS(=O)(=O)c1ccc(-c2cc(-c3ccc(C)cc3)on2)cc1)C(=O)O (stereo partly drawn) | 0.000256
CC(C)[C@H](NS(=O)(=O)c1ccc(-c2cc(-c3ccc(Br)cc3)on2)cc1)C(=O)O | 0.000205

Now look at this entry.
Name the reported IC50 value associated with the compound COc1ccc(-c2cc(-c3ccc(S(=O)(=O)N[C@@H](C(=O)O)C(C)C)cc3)no2)cc1F 0.000266

---

# TARGET OF ASSAY: MMP-12 (Homo sapiens, UniProt P39900)
# Construct: In regard to MMP-12, catalytic domain(^100Phe˜^263Gly) was amplified with RT-PCR; His-tag; enterokinase digestion-site; made in house
# EXPERIMENTAL PROTOCOL: Assay for inhibitory activities on MMPs (fluorogenic MOCAc peptide substrate): MMP-12
# Format: biochemical
# DETAILS: catalytic domain 100Phe-263Gly
# Procedure: In regard to MMP-12, catalytic domain(^100Phe˜^263Gly) was amplified with RT-PCR from Human Placenta Total RNA. […] The enzymatic activity on MMPs was analyzed by the method described in “C. […] The value of inhibitory activity against MMP-2, MMP-8, MMP-9, MMP-12, and MMP-13 measured by above mentioned methods are shown in Table 36, 37, 38, 39, and 40 respectively.
MEASUREMENT KIND: IC50
Answer with the figure and its unit, nothing else.

Examples with their reported IC50 follow.
Cc1ccc(-c2cc(-c3ccc(S(=O)(=O)N[C@@H](C)C(=O)O)cc3)no2)cc1 | 0.000899 µM
CC(C)C[C@H](NS(=O)(=O)c1ccc(-c2cc(-c3ccc(Br)cc3)no2)cc1)C(=O)O | 0.00043 µM
CCc1ccc(-c2cc(-c3ccc(S(=O)(=O)N[C@H](C(=O)O)C(C)CC)cc3)no2)cc1 (stereo partly drawn) | 0.000172 µM

Name the reported IC50 value associated with the compound CC(C)C[C@H](NS(=O)(=O)c1ccc(-c2cc(-c3ccc(Cl)c(F)c3)on2)cc1)C(=O)O 0.000233 µM

Name the reported IC50 value associated with the compound CCc1ccc(-c2cc(-c3ccc(S(=O)(=O)N[C@H](C(=O)O)C(C)CC)cc3)no2)s1 (stereo partly drawn) 0.000649 µM

Name the reported IC50 value associated with the compound CC(C)C[C@H](NS(=O)(=O)c1ccc(-c2cc(-c3ccc(Br)cc3)on2)cc1)C(=O)O 0.000218 µM

Name the reported IC50 value associated with the compound CC(C)C[C@H](NS(=O)(=O)c1ccc(-c2cc(-c3ccc4c(c3)OCO4)on2)cc1)C(=O)O 0.000545 µM

Name the reported IC50 value associated with the compound COc1ccc(-c2cc(-c3ccc(S(=O)(=O)N[C@@H](CC(C)C)C(=O)O)cc3)no2)cc1 0.000432 µM

Name the reported IC50 value associated with the compound CC(C)C[C@H](NS(=O)(=O)c1ccc(-c2cc(-c3ccc(C(F)(F)F)cc3)no2)cc1)C(=O)O 0.000584 µM
